- Tested on: M19-MEL melanoma
- assayNotes: NCI tumour cell line growth inhibition, 48 h
quantity: TGI

{"columns": ["molecule", "quantity", "result"],
 "data": [
  ["CC(=O)N1c2ccccc2N(C(C)=O)C1c1ccc(C2N(C(C)=O)c3ccccc3N2C(C)=O)[nH]1", "TGI", "> 100 µM"],
  ["CCOC(=O)c1c(CN2CCNCC2)nc2ccc(Cl)cc2c1-c1ccccc1", "TGI", "3.61 µM"],
  ["Cc1ccc(C(=O)NC2CCCCC2)cc1N=NN(C)C", "TGI", "> 100 µM"],
  ["COc1cc2c(c(OC)c1OC)-c1ccc(SC)c(=O)cc1[C@@H](NC(=O)c1cccc([N+](=O)[O-])c1)CC2", "TGI", "> 100 µM"],
  ["Cc1cc(N(CCC#N)CCC#N)ccc1/C=C1N=C(/C=C\\c2ccccc2)N(NC(=O)CC(=O)Nc2ccccc2Cl)C\\1=O", "TGI", "> 100 µM"],
  ["CCOC(=O)C(C)NC(=O)NC12CC3CC(CC(F)(C3)C1)C2 (stereo unspecified)", "TGI", "> 100 µM"]
]}

###

- System: BT-549 breast
- assayNotes: NCI tumour cell line growth inhibition, 48 h
Each entry below carries its reported log10(TGI).
quantity: log10(TGI) (log10 of the value in µM)

{"columns": ["molecule", "quantity", "resultNumber"],
 "data": [
  ["COc1ccc(C(=O)/C=C/c2cc(-c3ccc(OC)c(OC)c3)n[nH]2)cc1OC", "log10(TGI)", 0.47],
  ["COc1cc2c3c(n(CCCN=[N+]=[N-])c(=O)c2cc1OC)-c1ccc([N+](=O)[O-])cc1C3=O", "log10(TGI)", 1.99],
  ["CC1(C)C(=O)/C=C\\C(=O)C(C)(C)C2=CC=C(O2)C(C)(C)C(=O)C(Br)C(Br)C(=O)C(C)(C)C2=CC=C1O2 (stereo not drawn)", "log10(TGI)", 1.88],
  ["NC1CCN(c2nc3ccccc3c3c2CCCC3)CC1", "log10(TGI)", 1.41],
  ["COc1ccc(Nc2ncc(I)c(NCCCNC(=O)C3CCC3)n2)cc1", "log10(TGI)", 0.90],
  ["CCOC(=O)c1c(NN2CCN(CC(F)(F)F)CC2)oc(/C=C2\\C=Nc3ncccc32)c1O", "log10(TGI)", 0.75],
  ["Oc1ccc(N=Nc2ccc(Br)cc2)c(O)c1", "log10(TGI)", 0.92],
  ["O=C(N/C(=C\\c1ccccc1)c1nc2ccccc2c(=O)o1)c1ccccc1", "log10(TGI)", 1.82],
  ["CCCCCCOC(=O)CC1=C(C)/C(=C/c2[nH]c(-c3ccc[nH]3)cc2OC)N=C1C", "log10(TGI)", 0.20],
  ["CC(C)(C)c1cc(C[P+](c2ccccc2)(c2ccccc2)c2ccccc2)cc(C(C)(C)C)c1O", "log10(TGI)", -0.05],
  ["O=C1N[C@H]2C(=O)c3c(Br)sc(Br)c3[C@H]2O1", "log10(TGI)", 1.45],
  ["Cc1cccc2c(=O)c3c(sc12)c(NCCCNCCO)nc1ccccc13", "log10(TGI)", 0.63],
  ["O=C(CCN1CCCCC1)Nc1ccc2c(c1)C(=O)c1ccc(NC(=O)CCN3CCCCC3)cc1C2=O", "log10(TGI)", 1.44],
  ["CCN(CC)CCCNc1ccc([N+](=O)[O-])c2nc3ccccc3c(N)c12", "log10(TGI)", 0.52]
]}

###

- Test system: TK-10 renal
- assayNotes: NCI tumour cell line growth inhibition, 48 h

{"columns": ["molecule", "sign", "TGI (µM)"],
 "data": [
  ["c1cc[c]([Ge]([O]c2cccc3cccnc23)([c]2ccccc2)[c]2ccccc2)cc1", "=", 20.3],
  ["Cc1cc(N(CCC#N)CCC#N)ccc1/C=C1N=C(/C=C\\c2ccccc2)N(NC(=O)CC(=O)Nc2ccccc2Cl)C\\1=O", ">", 100],
  ["NC(=O)N/N=C(\\CC1OC(=O)c2ccccc21)c1ccc([N+](=O)[O-])cc1 (configuration not stated)", ">", 100],
  ["CCOC(=O)c1cc(=O)c2cccc3c2n1CCS3", ">", 100],
  ["CCn1nc(C2CCN(C(=O)CCO)CC2)nc1-c1cnc(N)c(-c2nnc(C(C)(C)C)o2)n1", ">", 100],
  ["CCCN(CCC)c1ccc(/C=N/NC(=O)c2cccnc2)c(C)c1", "=", 38.5],
  ["O=C1Nc2cccc(Cl)c2/C1=C\\c1cccnc1", "=", 34.7],
  ["COc1cc(C2c3cc4c(cc3OC(NNC(N)=S)C2C)OCO4)cc(OC)c1OC (configuration not stated)", ">", 100],
  ["COc1cc(CSc2nc3ccc(Cl)cc3c(=O)n2Cc2ccccc2)cc(OC)c1OC", "=", 51.8],
  ["O=C(COc1ccccc1)NNc1ccccc1", ">", 300],
  ["CC1(O)CC2C(CC1SC1CC3C(CC1(C)O)C3(C)C)C2(C)C (configuration not stated)", ">", 100],
  ["O=S(=O)(CC(Cl)c1ccccc1)c1nc2ccccc2s1 (configuration not stated)", "=", 34.2]
]}

###

- System: ACHN renal
- assayNotes: NCI tumour cell line growth inhibition, 48 h
quantity: TGI (µM)

{"columns": ["molecule", "targetSystem", "sign", "resultNumber"],
 "data": [
  ["Cc1cc(Cl)ccc1NC(=O)/C(=N\\NC(C)(C)C)C(C#N)c1nc(-c2ccc([N+](=O)[O-])cc2)cs1 (stereo unspecified)", "ACHN renal", ">", 100],
  ["O=c1c2ccccc2n2c(-c3ccccc3O)nnc2n1-c1ccccc1", "ACHN renal", ">", 100],
  ["O=C(CCN1CCCCC1)Nc1ccc2c(c1)C(=O)c1ccc(NC(=O)CCN3CCCCC3)cc1C2=O", "ACHN renal", "=", 23.9],
  ["Cc1nnn(C)c1-c1cnc2c3ccc(C(C)(C)O)cc3n([C@H](c3ccccc3)C3CCOCC3)c2c1", "ACHN renal", "=", 14.9],
  ["COc1ccc(C2c3ccc4ccccc4c3Oc3ncn(CCCn4ccnc4)c(=N)c32)cc1OC (stereo unspecified)", "ACHN renal", "=", 16.2],
  ["CC[C@]12CN3CCc4c([nH]c5ccccc45)[C@@](C(=O)OC)(c4cc5c(cc4OC)N(C)[C@H]4[C@@](O)(C(=O)OC)[C@H](OC(C)=O)[C@]6(CC)C=CCN7CC[C@]54[C@@H]76)CC(C3)[C@H]1O2 (stereo partly specified)", "ACHN renal", ">", 100]
]}

###

- Tested on: U251 CNS
Each entry below carries its reported GI50.

{"columns": ["testSmiles", "targetSystem", "GI50"],
 "data": [
  ["CCOc1ccc(-c2nc3ccc(-c4nc5ccc(N6CCN(C)CC6)cc5[nH]4)cc3[nH]2)cc1", "U251 CNS", "0.155 µM"],
  ["Cc1cccc2c(=O)c3c(sc12)c(NCCCNCCO)nc1ccccc13", "U251 CNS", "1.5 µM"],
  ["Clc1cc(Br)ccc1-c1ccc(CNCC2CCNCC2)o1", "U251 CNS", "2.17 µM"],
  ["Cc1nnn(C)c1-c1cnc2c3ccc(C(C)(C)O)cc3n([C@H](c3ccccc3)C3CCOCC3)c2c1", "U251 CNS", "0.27 µM"]
]}

###

- System: A549 NSCLC
- assayNotes: NCI tumour cell line growth inhibition, 48 h; in the data active means GI50 below about 0.43 µM; inactive means the rest
Labels: 1 (yes) (active), 0 (no) (inactive)

{"columns": ["compound", "targetSystem", "groupLabel"],
 "data": [
  ["COc1ccc(OC)c(N2CC(O)=C(c3nc4ccccc4s3)C2=N)c1", "A549 NSCLC", "0 (no)"],
  ["Cn1cnc([N+](=O)[O-])c1S(=O)(=O)Oc1ccc(Cl)cc1", "A549 NSCLC", "0 (no)"],
  ["COc1cccc(S(=O)(=O)NC2=NCCN2C(=S)SN2CCn3c2nsc3=S)c1", "A549 NSCLC", "0 (no)"],
  ["COc1ccc(-c2cnc(-c3ccc(OC)cc3)n2-c2cc(OC)c(OC)c(OC)c2)cc1", "A549 NSCLC", "0 (no)"],
  ["COc1ccc(C2c3ccc4ccccc4c3Oc3ncn(CCCn4ccnc4)c(=N)c32)cc1OC (stereo not drawn)", "A549 NSCLC", "0 (no)"],
  ["COC(=O)CCc1n(Cc2ccc3ccccc3c2)c2ccccc2[n+]1Cc1ccc2ccccc2c1", "A549 NSCLC", "0 (no)"],
  ["COc1cc2c3c(n(CCCN=[N+]=[N-])c(=O)c2cc1OC)-c1ccccc1C3=O", "A549 NSCLC", "0 (no)"],
  ["Clc1ccc(-c2cnc3c(-c4ccnc(N5CCNCC5)c4)cnn3c2)cc1", "A549 NSCLC", "0 (no)"],
  ["CCCCCCCCCCCCCCCCn1cc[n+](C)c1", "A549 NSCLC", "1 (yes)"],
  ["Cc1ccc(-c2cc(C(=O)Nc3ccc(S(=O)(=O)N4CCCCC4)cc3)[nH]n2)c(O)c1", "A549 NSCLC", "0 (no)"],
  ["N#Cc1c(N)nc2c(c1-c1ccc(Cl)cc1)COc1ccc(F)cc1-2", "A549 NSCLC", "0 (no)"],
  ["CCOC(=O)c1ccc(N2NC(=O)/C(=C/c3ccc([N+](=O)[O-])o3)C2=O)cc1", "A549 NSCLC", "0 (no)"],
  ["CCOc1ccccc1/C=N\\N=C(N/N=C/c1ccccc1OCC)N/N=C/c1ccccc1OCC", "A549 NSCLC", "0 (no)"]
]}

The reported numbers originate from PubChem BioAssay (NCI).
